Value source: patent US9018231B2

# Lookup of reported half-life keyed by entry
Experiment: Rodent pharmacokinetic study
Assay type: in vivo
Conditions: plasma; Wistar/Male rat, 10 mg/kg, Oral; vehicle water (Ex. 8: 50% PEG 400)
readout: half-life (h)

>>> reportedvalue("COc1ccc(S(=O)(=O)c2c[nH]c3cc(Cl)ccc23)cc1NC1CCN(C)CC1")
1.86
>>> reportedvalue("CN1CCC(Nc2cc(S(=O)(=O)c3c[nH]c4cc(Cl)ccc34)ccc2Cl)CC1.Cl")
9.06
>>> reportedvalue("COc1ccc(S(=O)(=O)c2cc(Br)ccc2OC)cc1NC1CCN(C)CC1.Cl")
1.35
>>> reportedvalue("COc1ccc(S(=O)(=O)c2cc(Br)ccc2OC)cc1NC1CCNCC1F.Cl (stereo not shown)")
1.36

----------
Assay: Rodent pharmacokinetic study
Format: in vivo
Conditions: plasma; Wistar/Male rat, 10 mg/kg, Intravenous; vehicle water (Ex. 8: 50% PEG 400); read-out: Tmax
Measured Tmax of individual entries
readout: Tmax (min)

>>> reportedvalue("CN1CCC(Nc2cc(S(=O)(=O)c3c[nH]c4cc(Cl)ccc34)ccc2Cl)CC1.Cl")
4.8
>>> reportedvalue("COc1ccc(S(=O)(=O)c2c[nH]c3cc(Cl)ccc23)cc1NC1CCN(C)CC1")
4.8
>>> reportedvalue("COc1ccc(S(=O)(=O)c2cc(Br)ccc2OC)cc1NC1CCNCC1F.Cl (stereo not shown)")
4.8
>>> reportedvalue("COc1ccc(S(=O)(=O)c2cc(Br)ccc2OC)cc1NC1CCN(C)CC1.Cl")
7.2

----------
Entries and their Kb values follow.
Target: recombinant human 5-HT6 receptor (Homo sapiens, UniProt P50406)
Construct: expressed in transfected cells
Sequence (P50406 whole entry): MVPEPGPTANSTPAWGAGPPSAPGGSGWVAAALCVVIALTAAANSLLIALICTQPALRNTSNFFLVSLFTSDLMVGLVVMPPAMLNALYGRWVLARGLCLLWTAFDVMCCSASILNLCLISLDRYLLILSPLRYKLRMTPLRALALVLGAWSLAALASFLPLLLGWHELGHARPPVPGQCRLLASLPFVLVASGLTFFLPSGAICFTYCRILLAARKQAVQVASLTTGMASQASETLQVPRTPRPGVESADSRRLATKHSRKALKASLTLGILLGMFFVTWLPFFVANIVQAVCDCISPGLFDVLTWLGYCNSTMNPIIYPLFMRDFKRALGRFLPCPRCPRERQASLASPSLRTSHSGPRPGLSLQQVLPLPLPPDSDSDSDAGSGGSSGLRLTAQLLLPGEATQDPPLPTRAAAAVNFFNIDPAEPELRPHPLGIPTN
Assay: Determination of Kb values for 5-HT6 receptor (CHO pCRE-Luc reporter assay)
Type: cell-based
Conditions: antagonism of 10 uM serotonin, luciferase reporter, CHO cells
Counter-ions that a name gives are not always drawn.
readout: Kb (nM)

>>> reportedvalue("COc1ccc(S(=O)(=O)c2cc(Br)ccc2OC)cc1NC1CCNCC1F.Cl (stereo not drawn) [Example 28, hydrochloride]")
0.1
>>> reportedvalue("COc1ccc(S(=O)(=O)c2cc(Br)ccc2OC)cc1NC1CCNCC1 [Example 29, hydrochloride]")
0.1
>>> reportedvalue("COc1ccc(S(=O)(=O)c2ccc(OC)c(NC3CCN(C)CC3)c2)cc1Cl")
0.1
